TARGET_OR_TEST_SYSTEM: carboxylic acid reductase (aryl aldehyde oxidoreductase) (Nocardia iowensis, UniProt Q6RKB1)
Sequence (Q6RKB1 whole entry): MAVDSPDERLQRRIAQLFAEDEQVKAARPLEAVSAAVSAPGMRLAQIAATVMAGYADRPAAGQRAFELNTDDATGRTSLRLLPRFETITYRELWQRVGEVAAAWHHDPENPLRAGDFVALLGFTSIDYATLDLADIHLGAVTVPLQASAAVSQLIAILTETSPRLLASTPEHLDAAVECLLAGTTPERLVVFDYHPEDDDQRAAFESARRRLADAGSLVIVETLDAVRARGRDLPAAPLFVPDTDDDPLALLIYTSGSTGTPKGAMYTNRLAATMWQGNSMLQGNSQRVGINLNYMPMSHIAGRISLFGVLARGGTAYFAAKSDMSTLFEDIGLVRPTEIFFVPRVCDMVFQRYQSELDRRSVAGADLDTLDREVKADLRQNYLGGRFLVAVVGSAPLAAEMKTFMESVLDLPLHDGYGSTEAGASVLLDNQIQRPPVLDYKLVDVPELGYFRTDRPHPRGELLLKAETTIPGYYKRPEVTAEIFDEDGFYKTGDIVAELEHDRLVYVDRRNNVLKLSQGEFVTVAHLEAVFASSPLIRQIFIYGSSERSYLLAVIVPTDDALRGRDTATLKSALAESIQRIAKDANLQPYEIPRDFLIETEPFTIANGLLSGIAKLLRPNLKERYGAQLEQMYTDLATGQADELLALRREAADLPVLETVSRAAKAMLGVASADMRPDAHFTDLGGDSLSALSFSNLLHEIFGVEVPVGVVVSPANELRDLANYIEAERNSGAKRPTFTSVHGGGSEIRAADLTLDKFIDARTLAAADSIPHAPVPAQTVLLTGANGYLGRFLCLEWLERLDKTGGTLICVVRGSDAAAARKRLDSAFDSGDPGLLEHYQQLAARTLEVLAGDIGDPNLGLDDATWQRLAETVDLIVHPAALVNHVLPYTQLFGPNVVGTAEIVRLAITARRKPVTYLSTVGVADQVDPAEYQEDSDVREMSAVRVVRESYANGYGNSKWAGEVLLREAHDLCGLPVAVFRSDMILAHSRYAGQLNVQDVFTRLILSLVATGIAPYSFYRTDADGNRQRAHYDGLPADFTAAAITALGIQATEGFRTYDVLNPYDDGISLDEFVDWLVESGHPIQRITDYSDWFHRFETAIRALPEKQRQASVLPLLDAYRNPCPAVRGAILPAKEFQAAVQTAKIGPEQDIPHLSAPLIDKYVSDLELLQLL
EXPERIMENT_SUMMARY: Substrate specificity of crude carboxylic acid reductase (100,000×g supernatant)
Type: biochemical, Nocardia sp. NRRL 5646
Parameters: Crude enzyme preparations consisting of 100,000×g supernatants were used in this study; endogenous in cells; host or cells: Nocardia sp; NRRL 5646, crude 100,000×g supernatant
REPORTED_CONDITIONS: 5 mM substrate, 0.15 mM NADPH, 1 mM ATP, 50 mM Tris-HCl pH 7.5; percentage of the initial rate of benzoate reduction
MEASURED_PARAMETER: Relative Activity (percentage)

[[record]]
compound_string = "O=C(O)c1ccoc1"
measured_parameter = "Relative Activity"
recorded_number = 22

[[record]]
compound_string = "O=C(O)c1cccnc1"
measured_parameter = "Relative Activity"
recorded_number = 5

[[record]]
compound_string = "Cc1ccccc1C(=O)O"
measured_parameter = "Relative Activity"
recorded_number = 6

[[record]]
compound_string = "O=C(O)c1ccc([N+](=O)[O-])cc1"
measured_parameter = "Relative Activity"
recorded_number = 0

[[record]]
compound_string = "O=C(O)c1ccc(-c2ccccc2)cc1"
measured_parameter = "Relative Activity"
recorded_number = 21

[[record]]
compound_string = "CC(=O)c1ccc(C(=O)O)cc1"
measured_parameter = "Relative Activity"
recorded_number = 20

[[record]]
compound_string = "O=C(O)c1cccc2ccccc12"
measured_parameter = "Relative Activity"
recorded_number = 77

[[record]]
compound_string = "O=C(O)c1ccccc1-c1ccccc1"
measured_parameter = "Relative Activity"
recorded_number = 16

[[record]]
compound_string = "O=C(O)c1cccc(Br)c1"
measured_parameter = "Relative Activity"
recorded_number = 105

[[record]]
compound_string = "O=C(O)c1cccc(C(=O)c2ccccc2)c1"
measured_parameter = "Relative Activity"
recorded_number = 53

[[record]]
compound_string = "COc1ccccc1C(=O)O"
measured_parameter = "Relative Activity"
recorded_number = 3

[[record]]
compound_string = "O=C(O)Cc1ccccc1"
measured_parameter = "Relative Activity"
recorded_number = 43

[[record]]
compound_string = "O=C(O)c1cccc([N+](=O)[O-])c1"
measured_parameter = "Relative Activity"
recorded_number = 0

[[record]]
compound_string = "O=C(O)c1ccco1"
measured_parameter = "Relative Activity"
recorded_number = 18

[[record]]
compound_string = "COc1cccc(C(=O)O)c1"
measured_parameter = "Relative Activity"
recorded_number = 87

[[record]]
compound_string = "O=C(O)c1ccccc1F"
measured_parameter = "Relative Activity"
recorded_number = 57

[[record]]
compound_string = "CC(=O)Nc1ccc(C(=O)O)cc1"
measured_parameter = "Relative Activity"
recorded_number = 22

[[record]]
compound_string = "O=C(O)c1ccc2[nH]ccc2c1"
measured_parameter = "Relative Activity"
recorded_number = 10

